Run description: Cytotoxicity against human QSG7701 cells after 24 hrs by MTT assay
Format: cell-based
Condition details: QSG7701, 24 h
Measured IC50 accompanies every entry in the list below.
Property: IC50 (µM)

INSERT INTO measurements (molecule, relational_operator, test_result) VALUES
  ('C[C@@H]1C[C@@]2(C[C@@H](C)[C@@]3(CC[C@@]4(C)[C@H]5CC[C@H]6C(C)(C)[C@H](O)CC[C@@]67C[C@]57CC[C@@]43C)O2)OC1=O', '>', 50),
  ('C[C@@H]1C[C@@]2(C[C@@H](C)[C@@]3(CC[C@@]4(C)C5=CC[C@H]6C(C)(C)C(=O)CC[C@]6(C)[C@@H]5CC[C@@]43C)O2)OC1=O', '=', 15.5),
  ('C/C(=C/CC[C@@H](C)[C@H]1CC[C@@]2(C)C3=CC[C@H]4C(C)(C)[C@@H](O)CC[C@]4(C)[C@@H]3CC[C@]12C)C(=O)O', '>', 50),
  ('C[C@@H]1C[C@@]2(C[C@@H](C)[C@@]3(CC[C@@]4(C)C5=C(C(=O)C[C@@]43C)[C@@]3(C)CCC(=O)C(C)(C)[C@@H]3CC5)O2)OC1=O', '=', 26.8),
  ('CC(=O)O[C@@H]1CC[C@]23C[C@@]24CC[C@@]2(C)[C@@](C)(CC[C@]25O[C@]2(C[C@@H](C)C(=O)O2)C[C@H]5C)[C@H]4CC[C@H]3C1(C)C', '>', 50),
  ('C[C@@H]1C[C@]2(C[C@@H](C)[C@@]3(CC[C@@]4(C)[C@H]5CC[C@H]6C(C)(C)C(=O)CC[C@]6(C)[C@@H]5CC[C@@]43C)O2)OC1=O', '>', 50),
  ('COC(=O)[C@H](C)CC(=O)C[C@@H](C)[C@]1(C)CC[C@@]2(C)C3=CC[C@H]4C(C)(C)[C@H](O)CC[C@]4(C)[C@@H]3CC=C21', '>', 50),
  ('C[C@@H]1C[C@]2(C[C@@H](C)[C@@]3(CC[C@@]4(C)C5=C(C(=O)C[C@@]43C)[C@@]3(C)CCC(=O)C(C)(C)[C@@H]3CC5)O2)OC1=O', '=', 26.8),
  ('C[C@@H]1C[C@]2(C[C@@H](C)[C@@]3(CC[C@@]4(C)[C@H]5CC[C@H]6C(C)(C)[C@H](O)CC[C@@]67C[C@]57CC[C@@]43C)O2)OC1=O', '>', 50),
  ('C[C@@H]1C[C@@]2(C[C@@H](C)[C@@]3(CC[C@@]4(C)[C@H]5CC[C@H]6C(C)(C)C(=O)CC[C@]6(C)[C@@H]5CC[C@@]43C)O2)OC1=O', '>', 50),
  ('C[C@@H]1C[C@]2(C[C@@H](C)[C@@]3(CC[C@@]4(C)C5=CC[C@H]6C(C)(C)C(=O)CC[C@]6(C)[C@@H]5CC[C@@]43C)O2)OC1=O', '=', 15.5),
  ('C[C@@H]1C[C@@]2(C[C@@H](C)[C@@]3(CC[C@@]4(C)C(=O)[C@@]5(CC[C@@]43C)[C@@H](O)C[C@H]3C(C)(C)C(=O)CC[C@@]35C)O2)OC1=O', '=', 8.2),
  ('CC1=CC(O)(C[C@@H](C)C2=CC[C@@]3(C)C4=C(CC[C@]23C)[C@@]2(C)CCC(=O)C(C)(C)[C@@H]2CC4)OC1=O (stereo partly drawn) [NEOABIESLACTONE E]', '=', 10.1);
